- assayed_system: T1, human CD33 (human, UniProt P20138 18-364)
- T1 construct: CD33 on human primary dendritic cells, macrophages, monocytes and T cells and on CHO cells expressing recombinant human CD33; also called Siglec-3; hCD33
- T1 sequence (P20138 18-364): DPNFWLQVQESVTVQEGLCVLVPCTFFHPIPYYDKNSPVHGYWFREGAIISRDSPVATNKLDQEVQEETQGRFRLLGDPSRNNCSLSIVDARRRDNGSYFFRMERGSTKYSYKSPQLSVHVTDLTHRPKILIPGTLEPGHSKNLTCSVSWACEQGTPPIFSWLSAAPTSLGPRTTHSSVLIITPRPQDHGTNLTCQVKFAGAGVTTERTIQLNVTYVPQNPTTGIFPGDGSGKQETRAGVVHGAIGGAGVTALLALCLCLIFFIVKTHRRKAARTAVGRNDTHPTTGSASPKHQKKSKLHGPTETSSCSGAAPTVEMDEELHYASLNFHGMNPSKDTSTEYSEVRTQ
- protocol_notes: flow cytometry, human primary dendritic cells;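 note: binding of anti-CD33 antibodies (10 ug/ml, 1 h on ice) to human primary dendritic cells, detected with a PE-labelled secondary antibody, reported as flow cytometry MFI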
readout_kind: DC MFI
Reply briefly: the number, and no unit.

C-24 (antibody, V domains shown, human IgG1) VH: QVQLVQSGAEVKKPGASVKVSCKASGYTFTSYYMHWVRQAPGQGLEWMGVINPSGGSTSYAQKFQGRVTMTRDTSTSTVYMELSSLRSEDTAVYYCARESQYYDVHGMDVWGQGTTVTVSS VL: DIQMTQSPSSLSASVGDRVTITCRASQSISSYLNWYQQKPGKAPKLLIYAASSLQSGVPSRFSGSGSGTDFTLTISSLQPEDFATYYCQQSVTPPLTFGGGTKVEIK | 1230

Query string: Please report the recorded DC MFI for C-63 (antibody, V domains shown, human IgG1) VH: QVQLVQSGAEVKKPGSSVKVSCKASGGTFSSYAISWVRQAPGQGLEWMGSIIPIFGTANYAQKFQGRVTITADESTSTAYMELSSLRSEDTAVYYCARDLGGQYYGSHHYWGQGTLVTVSS VL: EIVLTQSPATLSVSPGERATLSCRASQSVGSNLAWYQQKPGQAPRLLIYGASTRATGIPARFSGSGSGTEFTLTISSLQSEDFAVYYCQQYNAWPLTFGGGTKVEIK .
Result string: 1200

Query string: Ok, now C-9 (antibody, V domains shown, human IgG1) VH: QLQLQESGPGLVKPSETLSLTCTVSGGSISSSSYYWGWIRQPPGKGLEWIGSIYYSGSTYYNPSLKSRVTISVDTSKNQFSLKLSSVTAADTAVYYCARESGFAGLDPWGQGTLVTVSS VL: EIVLTQSPGTLSLSPGERATLSCRASQSVSSSFLAWYQQKPGQAPRLLIYGASSRATGIPDRFSGSGSGTDFTLTISRLEPEDFAVYYCQQSEDWPTFGGGTKVEIK
Result string: 1700

Query string: Ok, now C-23 (antibody, V domains shown, human IgG1) VH: QVQLQESGPGLVKPSETLSLTCAVSGYSISSGYYWGWIRQPPGKGLEWIGTIYHSGSTYYNPSLKSRVTISVDTSKNQFSLKLSSVTAADTAVYYCAREVGVVGALPYFDYWGQGTLVTVSS VL: DIQMTQSPSSLSASVGDRVTITCRASQSISSYLNWYQQKPGKAPKLLIYGASSLQSGVPSRFSGSGSGTDFTLTISSLQPEDFATYYCQQASSSPPTFGGGTKVEIK
Result string: 1050

Query string: Ok, now C-60 (antibody, V domains shown, human IgG1) VH: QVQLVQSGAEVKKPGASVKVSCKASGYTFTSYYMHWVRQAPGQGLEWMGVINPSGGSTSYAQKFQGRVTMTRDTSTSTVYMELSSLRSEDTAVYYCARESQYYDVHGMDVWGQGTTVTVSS VL: DIQLTQSPSSLSASVGDRVTITCRASQSISSYLNWYQQKPGKAPKLLIYAASSLQSGVPSRFSGSGSGTDFTLTISSLQPEDFATYYCQQSVHVPITFGGGTKVEIK
Result string: 1040
